This collection of values is drawn from PubChem BioAssay AID652048.

Assay System: D(3) dopamine receptor (Homo sapiens) (UniProt P35462)
Sequence (P35462 whole entry, looked up): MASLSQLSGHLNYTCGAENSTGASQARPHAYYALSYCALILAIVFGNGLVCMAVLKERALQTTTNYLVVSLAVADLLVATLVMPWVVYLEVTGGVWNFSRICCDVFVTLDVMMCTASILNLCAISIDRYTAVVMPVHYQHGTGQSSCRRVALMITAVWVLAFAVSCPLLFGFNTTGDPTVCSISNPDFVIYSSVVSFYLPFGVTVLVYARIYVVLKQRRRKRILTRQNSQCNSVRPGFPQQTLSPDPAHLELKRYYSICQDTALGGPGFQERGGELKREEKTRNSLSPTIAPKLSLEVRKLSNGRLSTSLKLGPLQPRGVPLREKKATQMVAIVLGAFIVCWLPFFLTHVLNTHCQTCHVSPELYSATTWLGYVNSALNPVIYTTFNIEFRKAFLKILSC
Test Protocol: qHTS of D3 Dopamine Receptor Agonist: qHTS; also: 0% is about no effect
Cond: D3R DiscoveRx beta-arrestin cells, luminescence, 90 min; active compounds read high
Among all 410,000 compounds or so, about 2,400 (0.59%) were called active. For the sample, actives were picked, then their nearest neighbours and some compounds at random.
Quantity Measured: max activation (%)
Numbers only, in %.

// solved cases for max activation follow
*Q* Param item = `Cc1ccc(C)c(N2CCN(C(=O)CCc3nc(-c4cccc(C(F)(F)F)c4)no3)CC2)c1` ; retrieve measured max activation.
*A* 11.8

*Q* Param item = O=C1N(Cc2ccccc2)c2ccc(Cl)cc2C1(O)c1c[nH]c2ccccc12 (centres undefined) ; retrieve measured max activation.
*A* 8.47

*Q* Param item = `Cn1c(=O)sc2cc(NS(=O)(=O)c3ccc(C(C)(C)C)cc3)ccc21` ; retrieve measured max activation.
*A* -11

*Q* Param item = `O=C(CN1CCN(c2ncccn2)CC1)Nc1ccccc1C(F)(F)F` ; retrieve measured max activation.
*A* 5.01

*Q* Param item = `CN[C@@H]1[C@H](O[C@H]2[C@H](O[C@H]3[C@H](O)[C@@H](O)[C@H](N=C(N)N)[C@@H](O)[C@@H]3N=C(N)N)O[C@@H](C)[C@]2(O)CO)O[C@@H](CO)[C@H](O)[C@H]1O` ; retrieve measured max activation.
*A* 4.88

*Q* Param item = `Oc1ccccc1-c1nc2ccc(Cl)cn2c1Nc1ccc2c(c1)OCCO2` ; retrieve measured max activation.
*A* -2.82

// each listed compound needs a value for max activation
1. CCN1CCN(CCCNC(=O)c2ccc3c(c2)sc2nc(-c4ccc(OC)cc4)cn23)CC1
2. Cc1noc(C)c1S(=O)(=O)N1CCCC(C(=O)Nc2nccs2)C1 (centres undefined)
3. COc1cccc(CNC(=O)CN2C(=O)CCc3cc(S(=O)(=O)N4CCOCC4)ccc32)c1
4. COc1cccc(C2=CC(=O)C[C@H](c3ccc(OC)c(OC)c3)C2)c1
5. Cc1cc2c(cc3c(SCc4nc(-c5ccccc5)oc4C)nnc(C)n32)o1
6. COc1ccc(-c2cn3c(n2)sc2cc(C(=O)Nc4ccccc4F)ccc23)cc1
7. COc1ccc2cc(C3=CC(=O)C[C@H](c4ccc5c(c4)OCO5)C3)ccc2c1

*A*
-6.77
2.46
7.79
-0.655
-6.34
35.4
38.7

// each listed compound needs a value for max activation
1. COc1ccc(-c2noc(CSc3nnc(-c4ccccc4)n3-c3ccc(F)cc3)n2)c(OC)c1
2. COc1ccc(NC(C)=O)cc1NC(=O)CN1CCN(C2c3ccccc3-c3ccccc32)CC1
3. Cc1ccc(-c2nn3c(=O)cc(CN4CCN(C(=O)Nc5cccc(C(F)(F)F)c5)CC4)nc3s2)cc1
4. O=C(O)CCCCC(=O)O
5. CC(C)(C)OC(=O)N1CCC(c2c(C(=O)N3CCN(c4cccc(Cl)c4)CC3)cnn2-c2cccc(Cl)c2)CC1

*A*
1: -1.45; 2: 46.6; 3: 5.13; 4: 2.29; 5: -9.63

*Q* Param item = `Cc1nc(SCCOc2ccc(Cl)cc2)[nH]c(=O)c1Cc1ccccc1` ; retrieve measured max activation.
*A* 1.02
